Quick list: SH2 binding enrichment per entry.
Target: Grb2 SH2 (UniProt P62993)
Sequence (P62993 whole entry, looked up): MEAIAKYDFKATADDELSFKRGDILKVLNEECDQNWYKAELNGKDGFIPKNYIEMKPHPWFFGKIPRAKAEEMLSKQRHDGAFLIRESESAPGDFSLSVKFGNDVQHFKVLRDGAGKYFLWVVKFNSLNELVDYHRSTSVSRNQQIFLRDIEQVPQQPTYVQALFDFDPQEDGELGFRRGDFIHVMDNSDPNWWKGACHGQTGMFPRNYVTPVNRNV
Assay: SH2 binding enrichment of the phosphorylated peptide, bacterial display (enrichment ratio); higher = better substrate or ligand; peptides without Tyr show the background

# BIOSEQUENCE, SH2 binding enrichment
rows = [
    ("FLAVGDHKPHI [IDS_Y225_Y225D]", 0.824),
    ("GQKVAYGGTED [ALDH3A1_Y305_G309E]", 0.788),
    ("DLAGRYYALKS [CKB_Y173]", 0.824),
]

* * *

Test system: AncSZ
Assay: phosphorylation enrichment, bacterial display (enrichment ratio); higher = better substrate or ligand; peptides without Tyr show the background
Where phosphorylation enrichment equals or exceeds 0.6, the correct label is label 1; where it does not, the label is label 0.

# BIOSEQUENCE, CLASS_LABEL
rows = [
    ("QTEAQYRFIYM [PTPN11_Y511]", "label 1"),
    ("RIFDYYSARKT [STOX1_Y858_A863T]", "label 0"),
    ("SAGSSYSISVI [PAX5_Y179_G183V]", "label 1"),
    ("PGIRMYQVQFN [LRFN1_Y454_YF]", "label 1"),
]

* * *

Quick list: SH2 binding enrichment per entry.
Target: Grb2 SH2 (UniProt P62993)
Assay: SH2 binding enrichment of the phosphorylated peptide, bacterial display (enrichment ratio); higher = better substrate or ligand; peptides without Tyr show the background

# BIOSEQUENCE, SH2 binding enrichment
measured = [
    ("EEKKKYFDTKI [CASP5_Y103_YF]", 0.821),
    ("AKAEIYEMRPL [COX10_Y97]", 0.895),
    ("MGGSVYFSFPD [HIKESHI_Y55_YF]", 0.892),
    ("LTMAPYSSVSV [FAM81A_Y24_L29V]", 0.783),
    ("GHEFIYVDRMQ [PDGFRB_Y581_P584R_YF]", 0.92),
    ("HKLSFYEFDFE [BTK_Y40_YF]", 0.911),
    ("KKGMIYGGGGG [PSME1_Y249_T244K]", 0.766),
    ("VDTRAYLTSAT [MT-CO1_Y304_F305L]", 0.774),
    ("ITRDEYPSNPM [CEMIP2_Y1015]", 0.717),
    ("ACEVLYNIVFM [NCF2_Y125_A128V]", 0.798),
    ("HDRREYSRFEK [ITGB7_Y758_Y753H]", 0.965),
    ("IVRSLYEDLED [VHL_Y185]", 0.875),
    ("VKGGAYNPVTV [MCCC2_Y145_Y146N]", 0.814),
]

* * *

Molecular target: Grb2 SH2 (UniProt P62993)
Experiment: SH2 binding enrichment of the phosphorylated peptide, bacterial display (enrichment ratio); higher = better substrate or ligand; peptides without Tyr show the background
Quick list: SH2 binding enrichment per entry.
QUANTITY: SH2 binding enrichment

# BIOSEQUENCE, TARGET_SYSTEM, DATA_VALUE
records = [
    ("LEVPLYKNGVK [CPS1_Y1069_A1065E]", "Grb2 SH2 (UniProt P62993)", 0.845),
    ("RKLVDYNSARH [BIN1_Y150_D151N]", "Grb2 SH2 (UniProt P62993)", 0.972),
    ("IGSHAYGDQYR [IDH1_Y135_R132S]", "Grb2 SH2 (UniProt P62993)", 0.848),
    ("TIQIMYGCDVG [HLA-A_Y123]", "Grb2 SH2 (UniProt P62993)", 0.857),
    ("GFRVCYTPDSR [PTPRF_Y451_Y450C_YF]", "Grb2 SH2 (UniProt P62993)", 0.787),
    ("KSSDVYVSFDF [SORL1_Y136_YF]", "Grb2 SH2 (UniProt P62993)", 0.891),
    ("QEEPEYWDQET [HLA-A_Y83_G80E]", "Grb2 SH2 (UniProt P62993)", 0.798),
    ("PGLSSYGVPAS [FLNB_Y1530]", "Grb2 SH2 (UniProt P62993)", 0.898),
    ("HKLSFNEFDFE [BTK_Y40_Y40N_YF]", "Grb2 SH2 (UniProt P62993)", 0.789),
]

* * *

Target: Fyn (UniProt P06241)
Sequence (P06241 whole entry, looked up): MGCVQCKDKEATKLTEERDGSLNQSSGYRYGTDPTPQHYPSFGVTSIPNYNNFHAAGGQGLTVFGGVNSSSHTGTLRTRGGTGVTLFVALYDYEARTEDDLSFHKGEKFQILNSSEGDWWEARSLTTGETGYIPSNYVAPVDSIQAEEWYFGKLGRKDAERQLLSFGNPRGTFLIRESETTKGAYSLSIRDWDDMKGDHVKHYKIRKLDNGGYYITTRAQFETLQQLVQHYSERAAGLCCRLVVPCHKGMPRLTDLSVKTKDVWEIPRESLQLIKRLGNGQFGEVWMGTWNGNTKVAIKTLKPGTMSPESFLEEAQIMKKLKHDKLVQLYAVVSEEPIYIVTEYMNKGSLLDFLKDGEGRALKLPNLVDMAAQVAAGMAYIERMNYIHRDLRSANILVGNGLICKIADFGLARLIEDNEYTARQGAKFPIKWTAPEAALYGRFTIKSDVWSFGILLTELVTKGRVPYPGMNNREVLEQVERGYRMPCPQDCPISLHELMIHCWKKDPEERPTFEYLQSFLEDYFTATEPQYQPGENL
Test: phosphorylation enrichment, bacterial display (enrichment ratio); higher = better substrate or ligand; peptides without Tyr show the background
Quick list: phosphorylation enrichment per entry.

# BIOSEQUENCE, phosphorylation enrichment
rows = [
    ("HFVDEYDPTIE [KRAS_Y32]", 0.605),
    ("PELIDYGKLWK [ACTN1_Y193_R197W]", 0.601),
    ("LMVFEYMRHGD [NTRK1_Y591]", 0.604),
    ("AMCVRYDGVEV [ADAMTSL2_Y594]", 0.583),
]

* * *

Quick list: phosphorylation enrichment per entry.
Molecular target: Fyn (UniProt P06241)
Test: phosphorylation enrichment, bacterial display (enrichment ratio); higher = better substrate or ligand; peptides without Tyr show the background

# BIOSEQUENCE, phosphorylation enrichment
measured = [
    ("SISLRYEGRVY [ABL1_Y167]", 0.513),
    ("RRVEPYGENFN [APOA4_Y310]", 0.487),
    ("KFMVGYEMLAK [GALT_Y339_Q344K]", 0.507),
    ("GKMSSYAFFVQ [HMGB1_Y16]", 0.505),
]

* * *

Molecular target: MERTK (UniProt Q12866)
Sequence (Q12866 whole entry, looked up): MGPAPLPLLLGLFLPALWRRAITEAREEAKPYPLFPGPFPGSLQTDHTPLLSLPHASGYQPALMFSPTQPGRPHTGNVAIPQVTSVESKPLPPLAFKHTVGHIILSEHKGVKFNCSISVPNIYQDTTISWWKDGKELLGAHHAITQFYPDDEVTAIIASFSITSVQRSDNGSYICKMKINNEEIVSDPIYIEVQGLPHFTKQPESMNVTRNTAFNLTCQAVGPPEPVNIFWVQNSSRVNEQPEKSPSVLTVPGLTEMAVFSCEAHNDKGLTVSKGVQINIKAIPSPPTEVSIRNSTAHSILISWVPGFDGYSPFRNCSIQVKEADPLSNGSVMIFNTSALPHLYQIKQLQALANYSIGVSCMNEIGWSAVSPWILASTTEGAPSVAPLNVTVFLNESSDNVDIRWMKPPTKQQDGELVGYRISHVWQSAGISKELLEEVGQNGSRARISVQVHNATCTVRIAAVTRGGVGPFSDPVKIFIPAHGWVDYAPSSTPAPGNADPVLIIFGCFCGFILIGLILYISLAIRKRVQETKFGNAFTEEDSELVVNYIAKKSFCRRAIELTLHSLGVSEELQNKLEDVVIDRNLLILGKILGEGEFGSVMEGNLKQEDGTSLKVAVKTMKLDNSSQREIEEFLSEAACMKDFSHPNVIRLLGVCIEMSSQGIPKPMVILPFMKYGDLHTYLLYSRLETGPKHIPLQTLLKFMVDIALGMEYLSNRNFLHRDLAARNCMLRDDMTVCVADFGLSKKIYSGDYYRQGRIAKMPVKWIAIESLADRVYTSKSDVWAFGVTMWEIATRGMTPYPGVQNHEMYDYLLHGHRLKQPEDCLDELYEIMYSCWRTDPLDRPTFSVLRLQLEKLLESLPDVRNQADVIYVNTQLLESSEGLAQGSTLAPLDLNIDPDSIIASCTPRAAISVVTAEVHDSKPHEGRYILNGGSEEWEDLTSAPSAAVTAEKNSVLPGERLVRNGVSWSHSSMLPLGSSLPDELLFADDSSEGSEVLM
Test: phosphorylation enrichment, bacterial display (enrichment ratio); higher = better substrate or ligand; peptides without Tyr show the background
Quick list: phosphorylation enrichment per entry.
QUANTITY: phosphorylation enrichment

# BIOSEQUENCE, DATA_VALUE
data = [
    ("YGGRDYSLDEF [MYOF_Y1705]", 0.454),
    ("KFVKMYDNHQL [MYO9A_Y203_YF]", 0.532),
    ("KVVQEYERVII [NPHS2_Y131]", 0.435),
    ("GQECEYPPTQD [METAP2_Y137]", 0.525),
    ("PELIDYGKLWK [ACTN1_Y193_R197W]", 0.522),
    ("FAGRDYSLDEF [MYOF_Y1705_G1701A_YF]", 0.45),
    ("LSRDVYEEDSY [RET_Y900]", 0.699),
    ("DKTGEYPVPLI [ACADM_Y73]", 0.392),
]

* * *

Quick list: phosphorylation enrichment per entry.
Tested on: Fer (mouse)
Assay: phosphorylation enrichment, bacterial display (enrichment ratio); higher = better substrate or ligand; peptides without Tyr show the background

# BIOSEQUENCE, TARGET_SYSTEM, phosphorylation enrichment
measured = [
    ("SYCYRYRCAAW [SUMF1_Y344_R349W]", "Fer (mouse)", 0.404),
    ("EQKKFYNAVKK [SCN5A_Y1495_M1498V_YF]", "Fer (mouse)", 0.402),
    ("DLDFTYIYPNI [PTEN_Y27_L25F]", "Fer (mouse)", 0.501),
    ("DPADRYLIEQC [CDKL5_Y286_T288I]", "Fer (mouse)", 0.511),
    ("ARLEFYENEKK [IRS1_Y47_YF]", "Fer (mouse)", 0.406),
]

* * *

Molecular target: EPHB2 (UniProt P29323)
Sequence (P29323 whole entry, looked up): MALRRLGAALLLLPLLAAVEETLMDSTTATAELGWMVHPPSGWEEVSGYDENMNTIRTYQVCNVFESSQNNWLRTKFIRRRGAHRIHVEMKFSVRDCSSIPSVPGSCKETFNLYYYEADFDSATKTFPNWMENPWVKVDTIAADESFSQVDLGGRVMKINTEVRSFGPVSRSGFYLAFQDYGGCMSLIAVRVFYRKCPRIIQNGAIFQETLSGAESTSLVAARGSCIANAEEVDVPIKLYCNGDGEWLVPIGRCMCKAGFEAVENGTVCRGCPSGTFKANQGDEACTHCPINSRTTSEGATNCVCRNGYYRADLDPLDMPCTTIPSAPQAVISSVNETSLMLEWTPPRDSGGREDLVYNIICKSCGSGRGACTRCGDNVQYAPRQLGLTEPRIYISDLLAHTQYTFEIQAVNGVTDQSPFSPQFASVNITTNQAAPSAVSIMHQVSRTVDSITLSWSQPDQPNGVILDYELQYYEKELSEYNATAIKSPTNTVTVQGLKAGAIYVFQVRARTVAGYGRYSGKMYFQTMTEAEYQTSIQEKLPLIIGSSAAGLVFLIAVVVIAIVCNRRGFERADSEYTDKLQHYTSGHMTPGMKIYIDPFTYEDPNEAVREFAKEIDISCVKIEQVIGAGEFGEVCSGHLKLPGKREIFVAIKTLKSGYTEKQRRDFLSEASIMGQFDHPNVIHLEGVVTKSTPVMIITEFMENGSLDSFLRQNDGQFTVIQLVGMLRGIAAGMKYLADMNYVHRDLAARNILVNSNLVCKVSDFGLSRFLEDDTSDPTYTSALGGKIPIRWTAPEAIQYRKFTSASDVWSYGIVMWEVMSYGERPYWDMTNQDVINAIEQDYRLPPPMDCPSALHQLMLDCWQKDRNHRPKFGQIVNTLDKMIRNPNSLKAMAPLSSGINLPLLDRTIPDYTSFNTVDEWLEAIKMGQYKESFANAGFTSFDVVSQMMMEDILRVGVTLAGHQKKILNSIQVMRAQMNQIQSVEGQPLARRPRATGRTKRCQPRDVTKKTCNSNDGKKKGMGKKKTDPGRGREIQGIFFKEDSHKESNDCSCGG
Assay: phosphorylation enrichment, bacterial display (enrichment ratio); higher = better substrate or ligand; peptides without Tyr show the background
Quick list: phosphorylation enrichment per entry.

# BIOSEQUENCE, phosphorylation enrichment
rows = [
    ("RKLASYRSCLL [DHX37_Y1080]", 0.492),
    ("VREIRYQGGNR [VWF_Y1570]", 0.511),
    ("PLFRKYWPNHI [GREB1L_Y1560_YF]", 0.498),
    ("GGSDCYGSLRP [MYLK_Y846_R845C]", 0.508),
]

* * *

Biological target: Grb2 SH2 (UniProt P62993)
Assay: SH2 binding enrichment of the phosphorylated peptide, bacterial display (enrichment ratio); higher = better substrate or ligand; peptides without Tyr show the background
Where SH2 binding enrichment equals or exceeds 0.8, the correct label is TRUE; where it does not, the label is FALSE.

# BIOSEQUENCE, CLASS_LABEL
records = [
    ("SISLRYEGRVF [ABL1_Y167_YF]", "TRUE"),
    ("PGDGEYFTLQI [TP53_Y327_L323G]", "TRUE"),
    ("QLPRGYISIPV [BAG3_Y205]", "FALSE"),
    ("NDQPDYDSVAS [GIT2_Y392]", "TRUE"),
]
